Test Target: Inhibitor of nuclear factor kappa-B kinase subunit beta (Homo sapiens, UniProt O14920)
Assay Notes: Inhibition of recombinant full length human IKKbeta expressed in baculovirus infected sf9 insect cells using biotinylated IkBalpha as substrate after 60 mins by DELFIA
Measurement Kind: Ki

Examples from the recorded data:
>>> print(df.to_string())
                                item_smiles  reported_measurement
0       N#Cc1c[nH]c2nc(N)nc(-c3ccccc3CO)c12               > 30 µM
1  N#Cc1c[nH]c2nc(N)nc(N3CCN(c4ccccc4)CC3)c12               > 30 µM
2                 N#Cc1c[nH]c2nc(N)nc(N)c12               > 30 µM

// each listed molecule needs a value for Ki
1. N#Cc1c[nH]c2nc(N)nc(-c3ccc(O)cc3)c12
2. N#Cc1c[nH]c2nc(N)nc(-c3cccc(O)c3)c12
3. N#Cc1c[nH]c2nc(N)nc(-c3ccc(CO)cc3)c12

Completion:
1. 20 µM
2. 3.8 µM
3. 2.3 µM

// each listed molecule needs a value for Ki
1. N#Cc1c[nH]c2nc(N)nc(NCCN3CCOCC3)c12
2. CS(=O)(=O)Nc1ccc(-c2nc(N)nc3[nH]cc(C#N)c23)cc1
3. N#Cc1c[nH]c2nc(N)nc(-c3ccccc3S(N)(=O)=O)c12
4. CN(c1nc(N)nc2[nH]cc(C#N)c12)C1CCCCC1

Completion:
["> 30 µM", "0.1 µM", "> 30 µM", "> 30 µM"]

// each listed molecule needs a value for Ki
1. N#Cc1c[nH]c2nc(N)nc(N(CCO)C3CCCCC3)c12
2. N#Cc1c[nH]c2nc(N)nc(-c3cccc(F)c3)c12

Completion:
1. > 30 µM
2. > 30 µM

* * *

Test Target: Inhibitor of nuclear factor kappa-B kinase subunit alpha (Homo sapiens)
Sequence (O15111 whole entry, the tested form may be a part): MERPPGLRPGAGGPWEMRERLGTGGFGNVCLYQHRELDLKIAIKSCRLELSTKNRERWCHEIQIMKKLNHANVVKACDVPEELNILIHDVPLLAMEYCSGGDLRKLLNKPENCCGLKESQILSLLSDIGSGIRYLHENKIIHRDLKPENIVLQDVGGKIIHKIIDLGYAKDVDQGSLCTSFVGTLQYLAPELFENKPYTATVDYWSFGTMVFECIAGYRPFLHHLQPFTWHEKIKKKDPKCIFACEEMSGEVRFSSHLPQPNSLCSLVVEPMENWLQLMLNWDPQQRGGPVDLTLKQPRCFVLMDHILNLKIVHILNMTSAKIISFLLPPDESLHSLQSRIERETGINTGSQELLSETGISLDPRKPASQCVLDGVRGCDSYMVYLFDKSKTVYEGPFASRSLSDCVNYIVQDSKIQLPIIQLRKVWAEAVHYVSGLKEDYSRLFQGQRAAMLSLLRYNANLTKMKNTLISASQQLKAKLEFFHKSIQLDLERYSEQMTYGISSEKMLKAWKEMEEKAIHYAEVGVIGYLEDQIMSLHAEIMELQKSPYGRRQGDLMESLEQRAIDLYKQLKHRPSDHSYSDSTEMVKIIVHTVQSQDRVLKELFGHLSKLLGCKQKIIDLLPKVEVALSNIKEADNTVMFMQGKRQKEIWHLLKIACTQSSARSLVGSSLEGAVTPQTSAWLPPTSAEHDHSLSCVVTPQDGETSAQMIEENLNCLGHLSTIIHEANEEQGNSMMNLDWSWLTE
Assay Notes: Inhibition of recombinant human N-terminal GST-tagged IKKalpha (1 to 745 residues) expressed in baculovirus expression system using biotinylated IkBalpha as substrate after 60 mins by DELFIA
Assignment: determine reported log10 of Ki for the given molecules.
Give log10 of Ki, with Ki taken in µM.

Examples from the recorded data:
>>> print(df.to_string())
                                item_smiles  measurement_kind  reported_measurement
0                N#Cc1c[nH]c2nc(N)nc(Cl)c12       log10 of Ki                  0.60
1     NS(=O)(=O)c1ccc(-c2ncnc3[nH]ccc23)cc1       log10 of Ki                  0.18
2          N#Cc1c[nH]c2nc(N)nc(N3CCCCC3)c12       log10 of Ki                  0.72
3  CNS(=O)(=O)c1ccc(-c2nc(N)nc3[nH]cc(C#N)c23)cc1       log10 of Ki                  0.23
4  CS(=O)(=O)Nc1ccc(-c2nc(N)nc3[nH]cc(C#N)c23)cc1       log10 of Ki                  0.15
5        N#Cc1c[nH]c2nc(N)nc(-c3ccccc3F)c12       log10 of Ki                  0.30
6  N#Cc1c[nH]c2nc(N)nc(N[C@@H]3C[C@H](O)[C@@H](O)[C@H]3O)c12       log10 of Ki                 -0.10
7  Cc1ccc(NS(=O)(=O)c2ccc(-c3nc(N)nc4[nH]cc(C#N)c34)cc2)cc1       log10 of Ki                  1.20
8  N#Cc1c[nH]c2nc(N)nc(Nc3ccc(S(N)(=O)=O)cc3)c12       log10 of Ki                  1.00
9  CS(=O)(=O)c1ccc(-c2nc(N)nc3[nH]cc(C#N)c23)cc1       log10 of Ki                  0.38

// each listed molecule needs a value for log10 of Ki
1. N#Cc1c[nH]c2nc(N)nc(N[C@H]3CC[C@H](O)CC3)c12
2. N#Cc1c[nH]c2ncnc(-c3ccc(S(N)(=O)=O)cc3)c12
3. CNc1nc(N)nc2[nH]cc(C#N)c12

Completion:
[0.30, 0.32, 1.11]

* * *

Test Target: Inhibitor of nuclear factor kappa-B kinase subunit beta (Homo sapiens)
Sequence (O14920 whole entry): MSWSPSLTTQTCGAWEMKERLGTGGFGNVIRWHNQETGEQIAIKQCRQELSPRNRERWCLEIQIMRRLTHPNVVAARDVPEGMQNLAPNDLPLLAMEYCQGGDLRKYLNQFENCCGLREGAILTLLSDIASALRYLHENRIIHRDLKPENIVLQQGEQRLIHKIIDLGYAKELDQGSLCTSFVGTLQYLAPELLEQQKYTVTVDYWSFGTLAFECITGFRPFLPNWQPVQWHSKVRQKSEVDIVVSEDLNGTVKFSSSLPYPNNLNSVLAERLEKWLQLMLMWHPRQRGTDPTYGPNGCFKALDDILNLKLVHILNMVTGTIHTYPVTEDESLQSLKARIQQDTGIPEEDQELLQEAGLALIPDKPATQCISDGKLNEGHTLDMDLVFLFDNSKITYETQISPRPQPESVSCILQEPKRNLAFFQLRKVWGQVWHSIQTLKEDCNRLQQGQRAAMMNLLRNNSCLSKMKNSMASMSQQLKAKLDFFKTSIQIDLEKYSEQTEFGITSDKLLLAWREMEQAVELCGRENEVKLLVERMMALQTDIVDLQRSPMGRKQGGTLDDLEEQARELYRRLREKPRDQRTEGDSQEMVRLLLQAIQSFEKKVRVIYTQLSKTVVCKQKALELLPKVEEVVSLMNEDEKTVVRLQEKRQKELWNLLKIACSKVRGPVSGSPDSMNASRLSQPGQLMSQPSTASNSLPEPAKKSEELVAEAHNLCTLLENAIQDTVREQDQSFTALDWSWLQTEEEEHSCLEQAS
Assay Notes: Inhibition of recombinant full length human IKKbeta expressed in baculovirus infected sf9 insect cells using biotinylated IkBalpha as substrate after 60 mins by DELFIA
Measurement Kind: Ki

Examples from the recorded data:
                                item_smiles  measurement_kind  reported_measurement
0     N#Cc1c[nH]c2nc(N)nc(-c3cccc(CO)c3)c12                Ki                  4 µM
1      N#Cc1c[nH]c2nc(N)nc(-c3ccc(F)cc3)c12                Ki               > 30 µM
2               Nc1nc(N2CCCCC2)c2cc[nH]c2n1                Ki               > 30 µM
3  N#Cc1c[nH]c2nc(N)nc(N[C@H]3CC[C@H](O)CC3)c12                Ki               > 30 µM
4  N#Cc1c[nH]c2nc(N)nc(-c3cccc(S(N)(=O)=O)c3)c12                Ki                5.9 µM
5         N#Cc1c[nH]c2nc(N)nc(NC3CCCCC3)c12                Ki               > 30 µM
6  N#Cc1c[nH]c2nc(N)nc(-c3cccc(C(N)=O)c3)c12                Ki               > 30 µM
7   N#Cc1c[nH]c2nc(N)nc(-c3ccccc3C(N)=O)c12                Ki               > 30 µM
8         N#Cc1c[nH]c2nc(N)nc(-c3ccccc3)c12                Ki               > 30 µM
9    N#Cc1c[nH]c2nc(N)nc(N3CCN(CCCO)CC3)c12                Ki               > 30 µM

// each listed compound needs a value for Ki
1. N#Cc1c[nH]c2nc(N)nc(N3CCN(CCO)CC3)c12
2. N#Cc1c[nH]c2nc(N)nc(N[C@@H]3C[C@H](O)[C@@H](O)[C@H]3O)c12

Completion:
> 30 µM
3.6 µM

* * *

Assignment: determine reported IC50 for the given compounds.
Test Target: Inhibitor of nuclear factor kappa-B kinase subunit alpha (Homo sapiens)
Assay Notes: Inhibition of IKKalpha in human U2OS cells assessed as decrease in FCS induced p100 phosphorylation at ser866/870 residues preincubated for 1 hr followed by FCS stimulation for 4 hrs by Western blot analysis

>>> print(df.to_string())
                             item_smiles                               test_target  reported_measurement
0  N#Cc1c[nH]c2nc(N)nc(-c3ccc(CO)cc3)c12  Inhibitor of nuclear factor kappa-B kinase subunit alpha (Homo sapiens)       13.9 to 19.1 µM

Now turn to the next compound.
Prompt: If you can, please state the reported IC50 value of N#Cc1c[nH]c2nc(N)nc(-c3ccc(S(N)(=O)=O)cc3)c12 .
Completion: 5.8 to 8.8 µM

Where do these numbers come from? They come from ChEMBL document CHEMBL4038327.
